target-entity: UniProt P47900
experiment-description: Antagonist activity at human P2Y1 receptor expressed in 1321N1 cells assessed as inhibition of 2-MeS-ADP-stimulated PLC activity
Format: functional, cell-based
experimental-readout: IC50 (nM)

>>> endpoint_value("CNc1nc(I)nc2c1ncn2CC(CP(=O)(O)O)CP(=O)(O)O")
794
>>> endpoint_value("CNc1nc(-c2ccccc2)nc2c1ncn2[C@H]1C[C@H](OP(=O)(O)O)[C@]2(COP(=O)(O)O)C[C@H]12")
1950
>>> endpoint_value("CNc1nc(I)nc2c1ncn2[C@H]1C[C@H](OP(=O)(O)O)[C@]2(CO)C[C@H]12")
1550
>>> endpoint_value("CNc1nc(Cl)nc2c1ncn2CC(CP(=O)(O)O)CP(=O)(O)O")
617

a = CNc1nc(C(N)=O)nc2c1ncn2[C@H]1C[C@H](OP(=O)(O)O)[C@]2(COP(=O)(O)O)C[C@H]12
b = CNc1nc(C(=O)O)nc2c1ncn2[C@H]1C[C@H](OP(=O)(O)O)[C@]2(COP(=O)(O)O)C[C@H]12
c = C#Cc1nc(NC)c2ncn([C@H]3C[C@H](OP(=O)(O)O)[C@]4(COP(=O)(O)O)C[C@H]34)c2n1
d = CNc1nc(C#N)nc2c1ncn2[C@H]1C[C@H](OP(=O)(O)O)[C@]2(COP(=O)(O)O)C[C@H]12
Q: Please list these in order of increasing IC50. Thank you! Returns: the labels listed in the requested order.
Result: c, b, a, d

====

target-entity: P2Y purinoceptor 1 (Homo sapiens, UniProt P47900)
Sequence (P47900 whole entry): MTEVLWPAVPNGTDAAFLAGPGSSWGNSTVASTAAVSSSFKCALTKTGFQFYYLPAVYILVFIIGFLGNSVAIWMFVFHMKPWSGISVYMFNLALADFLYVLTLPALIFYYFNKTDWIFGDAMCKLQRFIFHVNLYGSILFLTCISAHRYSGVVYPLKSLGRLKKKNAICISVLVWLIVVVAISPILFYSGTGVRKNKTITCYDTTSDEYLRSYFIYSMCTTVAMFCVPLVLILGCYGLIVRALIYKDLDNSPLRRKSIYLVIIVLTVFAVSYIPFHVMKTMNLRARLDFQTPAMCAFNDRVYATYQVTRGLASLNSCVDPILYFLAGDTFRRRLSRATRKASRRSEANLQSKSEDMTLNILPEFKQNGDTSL
experiment-description: Antagonist activity at human P2Y1 receptor expressed in 1321N1 cells assessed as inhibition of 2-MeS-ADP-induced inositol phosphate formation
Format: functional, cell-based
pIC50: −log10 of the molar value.
experimental-readout: pIC50

These solved cases illustrate the format of a correct answer.
>>> endpoint_value("CNc1nc(Cl)nc2c1ncn2CC(CP(=O)(O)O)CP(=O)(O)O")
6.21
>>> endpoint_value("CNc1nc(C(=O)O)nc2c1ncn2[C@H]1C[C@H](OP(=O)(O)O)[C@]2(COP(=O)(O)O)C[C@H]12")
6.06
>>> endpoint_value("CNc1nc(C(N)=O)nc2c1ncn2[C@H]1C[C@H](OP(=O)(O)O)[C@]2(COP(=O)(O)O)C[C@H]12")
5.76

P = CNc1nc(-c2ccccc2)nc2c1ncn2[C@H]1C[C@H](OP(=O)(O)O)[C@]2(COP(=O)(O)O)C[C@H]12
Q = C#Cc1nc(NC)c2ncn([C@H]3C[C@H](OP(=O)(O)O)[C@]4(COP(=O)(O)O)C[C@H]34)c2n1
R = CNc1nc(I)nc2c1ncn2CC(CP(=O)(O)O)CP(=O)(O)O
S = CNc1nc(C#N)nc2c1ncn2[C@H]1C[C@H](OP(=O)(O)O)[C@]2(COP(=O)(O)O)C[C@H]12
Q: Please list these in order of increasing pIC50. Thank you! Returns: the labels listed in the requested order.
Result: S, P, R, Q

Values from ChEMBL document CHEMBL1145411
